# TEST TARGET: OPRD (Homo sapiens, UniProt P41143)
# Sequence (P41143 whole entry): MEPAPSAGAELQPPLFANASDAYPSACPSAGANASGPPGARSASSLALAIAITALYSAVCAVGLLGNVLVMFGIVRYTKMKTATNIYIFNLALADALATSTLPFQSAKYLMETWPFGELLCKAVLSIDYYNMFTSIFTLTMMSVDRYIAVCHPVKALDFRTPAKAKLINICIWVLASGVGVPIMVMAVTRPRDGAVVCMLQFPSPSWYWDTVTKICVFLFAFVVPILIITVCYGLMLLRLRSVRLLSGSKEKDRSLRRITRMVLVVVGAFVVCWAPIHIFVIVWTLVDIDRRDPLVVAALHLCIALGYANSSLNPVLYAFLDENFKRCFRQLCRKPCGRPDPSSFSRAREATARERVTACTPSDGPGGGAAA
# METHOD SUMMARY: qHTS cAMP assay, antagonist mode, HDOR cells
# STATED CONDITIONS: OPRD, antagonist mode, range given for all three receptors
MEASURED ATTRIBUTE: IC50

Retrieve IC50 measured for Nc1ncnc2c1ncn2[C@@H]1O[C@@H]2COP(O)(=S)O[C@H]2[C@H]1O (stereo partly shown) [NCGC00485585-01, Adenosine 3’,5’-cyclothiophosphate] and print it. 40 to 70 nM

----------
# TEST TARGET: OPRM (Homo sapiens, UniProt P35372)
# Sequence (P35372 whole entry): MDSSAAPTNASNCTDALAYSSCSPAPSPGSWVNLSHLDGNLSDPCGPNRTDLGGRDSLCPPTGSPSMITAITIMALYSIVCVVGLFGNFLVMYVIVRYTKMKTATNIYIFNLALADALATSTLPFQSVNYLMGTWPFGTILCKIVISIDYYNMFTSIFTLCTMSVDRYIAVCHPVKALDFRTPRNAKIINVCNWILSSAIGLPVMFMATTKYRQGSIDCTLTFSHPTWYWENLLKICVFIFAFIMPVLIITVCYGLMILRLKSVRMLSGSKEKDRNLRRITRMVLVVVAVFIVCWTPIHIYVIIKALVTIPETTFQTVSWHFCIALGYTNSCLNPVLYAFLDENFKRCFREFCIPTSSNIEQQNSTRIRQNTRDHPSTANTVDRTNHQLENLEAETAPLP
# METHOD SUMMARY: cell-based
# Type: cell-based
Lab note - cut at 600 nM for AC50: MET if strictly below, NOT MET if not.

O=C(O)c1ccc(O)c2ncc(N3CCCN(CCc4cccc5ccccc45)CC3)cc12 [NCGC00247751-02]	NOT MET

Determine whether this compound shows AC50 lower than 600 nM (ties excluded): N#CC(CCCN1CCC(O)(c2ccc(Cl)cc2)CC1)(c1ccccc1)c1ccccc1 [NCGC00378719-01, VUF-2274] MET
